All values here come from the kinase profiling compilation of Christmann-Franck et al. (2016).

Target: UniProt:O15530
Sequence (O15530 whole entry, looked up): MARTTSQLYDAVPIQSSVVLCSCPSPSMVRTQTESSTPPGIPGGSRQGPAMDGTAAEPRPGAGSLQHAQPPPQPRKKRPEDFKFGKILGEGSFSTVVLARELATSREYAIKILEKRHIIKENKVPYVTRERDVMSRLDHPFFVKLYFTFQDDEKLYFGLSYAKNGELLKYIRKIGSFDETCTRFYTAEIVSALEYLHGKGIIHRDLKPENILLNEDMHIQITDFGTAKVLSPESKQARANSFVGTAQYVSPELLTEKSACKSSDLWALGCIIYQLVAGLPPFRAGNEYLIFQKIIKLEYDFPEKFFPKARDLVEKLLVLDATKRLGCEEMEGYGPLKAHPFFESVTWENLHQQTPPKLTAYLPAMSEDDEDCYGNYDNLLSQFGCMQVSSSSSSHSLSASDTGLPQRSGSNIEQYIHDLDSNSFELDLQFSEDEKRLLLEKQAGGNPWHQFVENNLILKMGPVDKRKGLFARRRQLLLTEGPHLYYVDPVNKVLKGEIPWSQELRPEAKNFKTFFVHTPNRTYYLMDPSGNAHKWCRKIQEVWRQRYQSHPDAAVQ
Experiment: radiometric filter-binding kinase assay, Kinase HotSpot
Conditions: compound 0.5 µM; ATP 10 µM
Task for the reader: assign each of the following molecules its reported residual activity.
Expressed in %, but write only the number.

The measured residual activity associated with `COc1cc(Nc2c(C#N)cnc3cc(OCCCN4CCN(C)CC4)c(OC)cc23)c(Cl)cc1Cl` reads 89.8

The measured residual activity associated with `CN(C)CCCn1cc(C2=C(c3c[nH]c4ccccc34)C(=O)NC2=O)c2ccccc21` reads 83.3

The measured residual activity associated with `O=C1Nc2ccc(Br)cc2/C1=C\c1cc2c([nH]1)CCCC2` reads 95.3

The measured residual activity associated with `CC(C)(C)c1cc(C=C(C#N)C#N)cc(Br)c1O` reads 102

The measured residual activity associated with `c1ccc2c(-c3ccncc3)c[nH]c2c1` reads 96.6

The measured residual activity associated with `CO[C@@H]1[C@H](N(C)C(=O)c2ccccc2)C[C@H]2O[C@]1(C)n1c3ccccc3c3c4c(c5c6ccccc6n2c5c31)C(=O)NC4` reads 21.8
